# tested.target: JAK2 (Homo sapiens (Human), UniProt O60674)
# test.protocol: Enzyme assay (Assay Example^a 1), JAK2
# Format: biochemical
# condition.details: ATP 100 μM
metric.name: IC50 (µM)
Write down the numeric answer in µM and omit the unit.

Reported IC50 of c1cc2c(ncn3nnc(C4CCN(Cc5cscn5)CC4)c23)[nH]1 [compound 240] : 0.11

For record CCOC(=O)CC1CCC(c2nnn3cnc4[nH]ccc4c23)CC1 (centres unmarked) [compound 438] the listed IC50 is 0.044

# IC50 (compound: N#Cc1ccc(NC[C@H]2CC[C@H](c3nnn4cnc5[nH]ccc5c34)CC2)cc1C#N [compound 262] ) is 0.045

Kindly note the recorded IC50 for Fc1ccc([C@@H]2C[C@H]2CN[C@H]2CC[C@H](c3nnn4cnc5[nH]ccc5c34)CC2)cc1 (relative stereo) [389b] , which is 0.14

Form: compound = O=C(NCCO)[C@H]1CC[C@H](c2nnn3cnc4[nH]ccc4c23)CC1 [compound 360] ; IC50 = 0.1

Noted for N#C[C@H]1CCN(C(=O)[C@H]2CC[C@H](c3nnn4cnc5[nH]ccc5c34)CC2)C1 [compound 357] : its IC50 reads 0.33

Measured IC50, O=S(=O)(O)C[C@H]1CC[C@H](c2nnn3cnc4[nH]ccc4c23)CC1 [compound 416] : 0.047

Input N#CCCNC(=O)[C@H]1CC[C@H](c2nnn3cnc4[nH]ccc4c23)CC1 [compound 356] . Output IC50: 0.036

* * *

# tested.target: UniProtKB P29597
# test.protocol: Tyk2 enzyme assay (Assay Example^b 1)
# condition.details: IC50 (μM) TYK2, Table^b 79; ATP 100 μM
For each of the compounds below, state its IC50.

Entry C[C@@H]1CCN(C(=O)CC(F)(F)F)C[C@@H]1n1ccc(=O)c2cnc3[nH]ccc3c21 (racemic) ; assay system UniProtKB P29597; IC50 recorded at 0.15 µM

# IC50 measured on UniProtKB P29597 for item C[C@@H]1CCN(C(=O)CC#N)C[C@@H]1n1ccc(=O)c2cnc3[nH]ccc3c21 (racemic) = 0.06 µM

Tested on UniProtKB P29597: C[C@@H]1CCN(C(=O)CC2CC2)C[C@@H]1n1ccc(=O)c2cnc3[nH]ccc3c21 (racemic) . Observed IC50: 1.5 µM

The compound CC1OCN(C2CCCCC2)c2c1cnc1[nH]ccc21 (stereo not drawn) , tested on UniProtKB P29597, showed IC50 of 4.1 µM

Field IC50 (UniProtKB P29597), entry `O=c1ccn(C2CCCCC2)c2c1cnc1[nH]cnc12` : 0.76 µM

Entry `O=C1NCc2cnc3[nH]ccc3c2N1C1CCCCC1` ; assay system UniProtKB P29597; IC50 recorded at 0.093 µM

Lab note: compound `O=c1ncc2cnc3[nH]ccc3c2n1C1CCCCC1` tested on UniProtKB P29597; recorded IC50 was 0.25 µM

IC50 on UniProtKB P29597 for `O=c1ncn(C2CCCCC2)c2c1cnc1[nH]ccc12` is > 1 µM

Noted IC50 for `O=S1(=O)C=CN(C2CCCCC2)c2c1cnc1[nH]ccc21` , tested on UniProtKB P29597: > 1 µM

* * *

Hi there, I'd appreciate the recorded IC50 for every entry that follows.
# tested.target: JAK1 (Homo sapiens (Human), UniProt P23458)
# test.protocol: Enzyme assay (Assay Example^a 1), JAK1
# Type: biochemical
# condition.details: ATP 100 μM
# output: bare number, implied unit µM

Form field IC50 for item `CN(CCC#N)c1ccc(CN2CCC(c3nnn4cnc5[nH]ccc5c34)CC2)cc1` on JAK1 (Homo sapiens (Human), UniProt P23458): 0.28

Test item `N#C/C(=C\N1CCC(c2nnn3cnc4[nH]ccc4c23)CC1)c1ccc(Cl)cc1` ; JAK1 (Homo sapiens (Human), UniProt P23458); reported IC50 was 0.056

Field IC50 (JAK1 (Homo sapiens (Human), UniProt P23458)), entry `N#CCCN(C[C@H]1CC[C@H](c2nnn3cnc4[nH]ccc4c23)CC1)c1ccccc1` : 0.025

Form field IC50 for item `FC1(F)Oc2ccc(NC[C@H]3CC[C@H](c4nnn5cnc6[nH]ccc6c45)CC3)cc2O1` on JAK1 (Homo sapiens (Human), UniProt P23458): 0.0067

Result for `CC(=O)N[C@H]1CCN(C[C@H]2CC[C@H](c3nnn4cnc5[nH]ccc5c34)CC2)C1` , tested on JAK1 (Homo sapiens (Human), UniProt P23458), IC50: 0.027

IC50 on JAK1 (Homo sapiens (Human), UniProt P23458) for `O=C(NC1CC1)[C@H]1CC[C@H](c2nnn3cnc4[nH]ccc4c23)CC1` is 0.042

Observed IC50, JAK1 (Homo sapiens (Human), UniProt P23458), `c1cc2c(ncn3nnc([C@H]4CC[C@H](CNCC5CC5)CC4)c23)[nH]1` : 0.0091

IC50 of `N#Cc1ccc(CNC(=O)[C@H]2CC[C@H](c3nnn4cnc5[nH]ccc5c34)CC2)cc1` , assay on JAK1 (Homo sapiens (Human), UniProt P23458), is 0.008

* * *

# tested.target: Tyk2 (Homo sapiens (Human))
# Sequence (P29597 whole entry): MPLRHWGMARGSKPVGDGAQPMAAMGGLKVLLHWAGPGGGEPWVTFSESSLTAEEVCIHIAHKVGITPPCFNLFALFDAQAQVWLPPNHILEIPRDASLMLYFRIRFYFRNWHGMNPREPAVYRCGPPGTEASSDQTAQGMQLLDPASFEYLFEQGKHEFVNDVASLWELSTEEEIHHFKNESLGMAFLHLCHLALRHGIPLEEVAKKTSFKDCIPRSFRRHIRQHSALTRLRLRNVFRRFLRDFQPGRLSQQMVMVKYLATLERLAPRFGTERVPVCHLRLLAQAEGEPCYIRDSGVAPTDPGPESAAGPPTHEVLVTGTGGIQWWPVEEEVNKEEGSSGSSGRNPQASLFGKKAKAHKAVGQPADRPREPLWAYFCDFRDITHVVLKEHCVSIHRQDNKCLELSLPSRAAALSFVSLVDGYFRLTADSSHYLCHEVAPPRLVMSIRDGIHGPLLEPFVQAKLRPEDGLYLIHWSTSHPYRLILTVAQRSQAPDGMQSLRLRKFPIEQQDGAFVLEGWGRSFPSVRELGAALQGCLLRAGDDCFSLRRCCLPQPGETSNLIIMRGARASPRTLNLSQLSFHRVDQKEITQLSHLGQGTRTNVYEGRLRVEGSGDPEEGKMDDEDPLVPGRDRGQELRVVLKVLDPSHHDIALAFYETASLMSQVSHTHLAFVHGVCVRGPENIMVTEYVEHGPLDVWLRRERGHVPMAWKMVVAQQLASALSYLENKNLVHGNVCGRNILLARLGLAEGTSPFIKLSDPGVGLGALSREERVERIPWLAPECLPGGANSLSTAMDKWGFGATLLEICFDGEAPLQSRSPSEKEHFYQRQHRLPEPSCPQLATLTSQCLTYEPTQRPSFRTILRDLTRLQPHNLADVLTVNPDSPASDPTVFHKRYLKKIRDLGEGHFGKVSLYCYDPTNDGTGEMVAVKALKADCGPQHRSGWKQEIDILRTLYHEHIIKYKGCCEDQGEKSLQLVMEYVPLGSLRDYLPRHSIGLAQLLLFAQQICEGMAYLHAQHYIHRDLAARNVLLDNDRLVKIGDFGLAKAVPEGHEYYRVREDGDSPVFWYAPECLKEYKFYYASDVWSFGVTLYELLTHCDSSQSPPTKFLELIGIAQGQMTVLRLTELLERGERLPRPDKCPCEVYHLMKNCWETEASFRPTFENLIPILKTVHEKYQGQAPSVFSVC
# test.protocol: Enzyme assay (Assay Example^a 1), Tyk2
# Format: biochemical
# condition.details: ATP 100 μM; Table^a 154
Kindly state log10 of IC50 for each of the entries shown.
# log10 transformed; quantity=IC50; unit=µM

Notebook: `CN(C[C@H]1CC[C@H](c2nnn3cnc4[nH]ccc4c23)CC1)c1ccc(C#N)cc1` , log10 of IC50 read as -0.24

log10 of IC50 for O[C@@H](CN[C@H]1CC[C@H](c2nnn3cnc4[nH]ccc4c23)CC1)c1ccccc1 [204b] is -0.46

Noted for N#Cc1ccc(CN[C@H]2CC[C@@H](c3nnn4cnc5[nH]ccc5c34)CC2)cc1 [137a] : its log10 of IC50 reads -0.51

Record summary for `Fc1ccc(CN2CCC(c3nnn4cnc5[nH]ccc5c34)CC2)cc1F` : reported log10 of IC50 = -0.31

Reported log10 of IC50 for `Clc1ccc(CCNC[C@H]2CC[C@H](c3nnn4cnc5[nH]ccc5c34)CC2)cc1` was -1.28

# compound c1cc2c(ncn3nnc([C@H]4CC[C@H](NN5CCOCC5)CC4)c23)[nH]1 [139b] ; its log10 of IC50 = -0.30

Lab note: measured log10 of IC50 of OC(CNC[C@H]1CC[C@H](c2nnn3cnc4[nH]ccc4c23)CC1)c1ccccc1 (mixture of isomers) was -1.36

Field log10 of IC50 (entry OC(CNC[C@H]1CC[C@H](c2nnn3cnc4[nH]ccc4c23)CC1)(c1ccccc1)C(F)(F)F (mixture of isomers) ) reads -0.20

# log10 of IC50 (compound: `Cc1cnc(CNC[C@H]2CC[C@H](c3nnn4cnc5[nH]ccc5c34)CC2)cn1` ) is -1.39

The reported value for `N#CC1CCN(C[C@H]2CC[C@H](c3nnn4cnc5[nH]ccc5c34)CC2)CC1` in terms of log10 of IC50 is -0.21

Measured log10 of IC50, O=C(CC(F)(F)F)N1CCCC(c2nnn3cnc4[nH]ccc4c23)C1 (racemic) : -0.24

Please fill in: log10 of IC50 reported for Cc1cc(NC(=O)N2CCCC(c3nnn4cnc5[nH]ccc5c34)C2)sn1 (racemic) = -0.15

Measured log10 of IC50 of c1cc2c(ncn3nnc(C4CC5CCC4C5)c23)[nH]1 (centres unmarked) : -1.60

Query FC(F)(F)c1ccc(CN[C@H]2CC[C@H](c3nnn4cnc5[nH]ccc5c34)CC2)cc1 [138b] yields log10 of IC50 of -1.34

* * *

# tested.target: JAK3 (Homo sapiens (Human))
# Sequence (P52333 whole entry): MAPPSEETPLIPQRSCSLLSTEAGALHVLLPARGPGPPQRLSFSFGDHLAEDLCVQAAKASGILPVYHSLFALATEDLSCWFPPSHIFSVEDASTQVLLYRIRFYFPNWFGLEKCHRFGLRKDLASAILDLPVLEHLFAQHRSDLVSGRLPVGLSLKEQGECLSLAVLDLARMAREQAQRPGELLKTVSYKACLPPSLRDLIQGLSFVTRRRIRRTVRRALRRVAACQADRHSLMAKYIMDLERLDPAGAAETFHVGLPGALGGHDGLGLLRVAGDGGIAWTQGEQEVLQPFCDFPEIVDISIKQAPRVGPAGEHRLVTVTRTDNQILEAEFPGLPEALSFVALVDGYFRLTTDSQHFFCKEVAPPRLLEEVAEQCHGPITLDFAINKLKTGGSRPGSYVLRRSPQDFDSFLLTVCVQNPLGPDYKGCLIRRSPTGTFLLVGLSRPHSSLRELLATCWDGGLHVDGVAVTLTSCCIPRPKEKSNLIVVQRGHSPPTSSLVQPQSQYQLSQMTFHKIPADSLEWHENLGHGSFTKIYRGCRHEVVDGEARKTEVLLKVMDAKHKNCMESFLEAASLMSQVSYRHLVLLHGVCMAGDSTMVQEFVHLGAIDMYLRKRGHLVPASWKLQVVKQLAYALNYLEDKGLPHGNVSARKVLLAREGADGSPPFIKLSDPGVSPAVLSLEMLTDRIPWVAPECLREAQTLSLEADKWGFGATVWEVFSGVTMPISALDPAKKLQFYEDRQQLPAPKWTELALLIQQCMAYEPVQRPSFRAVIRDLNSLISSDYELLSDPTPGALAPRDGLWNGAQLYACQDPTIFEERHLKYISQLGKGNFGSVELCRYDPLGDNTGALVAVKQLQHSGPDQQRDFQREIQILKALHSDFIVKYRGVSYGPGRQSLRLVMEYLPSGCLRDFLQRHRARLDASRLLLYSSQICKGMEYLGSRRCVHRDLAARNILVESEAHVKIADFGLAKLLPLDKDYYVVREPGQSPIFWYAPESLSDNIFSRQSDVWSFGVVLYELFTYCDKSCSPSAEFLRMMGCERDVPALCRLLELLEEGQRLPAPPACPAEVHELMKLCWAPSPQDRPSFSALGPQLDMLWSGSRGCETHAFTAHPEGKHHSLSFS
# test.protocol: Enzyme assay (Assay Example^a 1), JAK3
# Type: biochemical
# condition.details: ATP 100 μM
metric.name: log10 IC50 (log10 of the value in µM)
Answers are given as log10 of IC50 in µM.

Reported log10 IC50 ( `N#C[C@@H]1CCN(C[C@H]2CC[C@H](c3nnn4cnc5[nH]ccc5c34)CC2)C1` ) = -0.02

# log10 IC50 (molecule: `O=S(=O)(C[C@H]1CC[C@H](c2nnn3cnc4[nH]ccc4c23)CC1)NC1CC1` ) is -0.42

Given item `Cc1ccccc1-c1nnn2cnc3[nH]ccc3c12` , the value recorded as its log10 IC50 is -0.59

Given item OC(CNC[C@H]1CC[C@H](c2nnn3cnc4[nH]ccc4c23)CC1)C(F)(F)F (stereo partly drawn) , the value recorded as its log10 IC50 is -0.48

Looking up `N#CCCN(C[C@H]1CC[C@H](c2nnn3cnc4[nH]ccc4c23)CC1)c1ccccc1` , I found its log10 IC50 recorded as -0.12

log10 IC50 reported for this molecule `N#Cc1ccc(CCNC[C@H]2CC[C@H](c3nnn4cnc5[nH]ccc5c34)CC2)cc1` : -0.41

The molecule listed as `O=C(CC(F)(F)F)NC[C@H]1CC[C@H](c2nnn3cnc4[nH]ccc4c23)CC1` shows log10 IC50 equal to -1.46

The reported value for `OC1CN(C[C@H]2CC[C@@H](c3nnn4cnc5[nH]ccc5c34)CC2)C1` in terms of log10 IC50 is -0.36

Note to self: log10 IC50 recorded for `O=C(NCC(F)(F)F)C1CN(C[C@H]2CC[C@H](c3nnn4cnc5[nH]ccc5c34)CC2)C1` was -0.06

Value of log10 IC50 reported for the molecule N#CCCN(CCC#N)C1CCC(c2nnn3cnc4[nH]ccc4c23)CC1 (stereo not drawn) is -0.70

Entry `N#CCC(=O)N(CC(F)(F)F)C[C@H]1CC[C@H](c2nnn3cnc4[nH]ccc4c23)CC1` , log10 IC50 reported as -0.51

Consider O[C@H]1Cc2ccccc2[C@H]1NC1CCC(c2nnn3cnc4[nH]ccc4c23)CC1 (mixture of isomers) . Its measured log10 IC50 is -0.39

The molecule listed as `N#CCN1CCC(c2nnn3cnc4[nH]ccc4c23)CC1` has a reported log10 IC50 of -0.55

Entry under test: O=C1SCCC1NC[C@H]1CC[C@H](c2nnn3cnc4[nH]ccc4c23)CC1 (stereo partly drawn) . Its log10 IC50 was -0.85

molecule `N#C/C=C/[C@H]1CC[C@H](c2nnn3cnc4[nH]ccc4c23)CC1` , log10 IC50 observed: -0.27

Input `O/N=C/[C@H]1CC[C@H](c2nnn3cnc4[nH]ccc4c23)CC1` . Output log10 IC50: -0.10

`Fc1ccc(C2(NC[C@H]3CC[C@H](c4nnn5cnc6[nH]ccc6c45)CC3)CC2)cc1` has a reported log10 IC50 of -0.08

Quick note, log10 IC50 for `OC1(C(F)(F)F)CN(C[C@H]2CC[C@H](c3nnn4cnc5[nH]ccc5c34)CC2)C1` landed at -1.09

So, CC(C#N)=C1CCC(c2nnn3cnc4[nH]ccc4c23)CC1 (stereo not drawn) ? Its log10 IC50 was -0.24

GET /value?item= `N#CCC[C@H]1CC[C@H](c2nnn3cnc4[nH]ccc4c23)CC1` &field=log10 IC50 returns -0.92

Form field log10 IC50, entry `N#CC(C#N)=C[C@H]1CC[C@H](c2nnn3cnc4[nH]ccc4c23)CC1` : -0.54
